The reported numbers originate from PubChem BioAssay (NCI).

Listed molecules paired with reported TGI
# Tested on: ACHN renal
# MEASUREMENT_NOTES: NCI tumour cell line growth inhibition, 48 h
READOUT_TYPE: TGI (µM)

molecule=CC1=C(CNO)C2=C(C)C3(CC3)[C@@](C)(O)C(=O)C2=C1 quantity_unit=µM prefix_operator== value_observed=7.6
molecule=Cc1cc(Nc2ccc(Cl)cc2)nc(NCCCNc2ccnc3cc(Cl)ccc23)n1 quantity_unit=µM prefix_operator== value_observed=3.06
molecule=Cn1ccnc1C(=O)/C=C/c1ccc(C(=O)Nc2c(F)c(F)c(F)c(F)c2F)cc1 quantity_unit=µM prefix_operator== value_observed=3.01
molecule="COc1ccc(C(=O)O/N=C2/CCCCC2CN(C)C)cc1 (stereo not given)" quantity_unit=µM prefix_operator=> value_observed=100
molecule=N#CCCN(CCC#N)c1ccc(C=Nc2ccc(F)cc2)cc1 quantity_unit=µM prefix_operator=> value_observed=100
molecule=CC1=C2[C@@H](CC1)[C@]1(C)O[C@@](C3CC3)(C[C@H]1OC(=O)CO)[C@H]2OC(=O)/C=C/c1ccccc1 quantity_unit=µM prefix_operator== value_observed=13.2
molecule="COc1ccc2c(c1)CC[C@@H]1C2CC[C@]2(C)C(=C=CP(=O)(O)O)CCC12 (stereo not given in full)" quantity_unit=µM prefix_operator=> value_observed=100
molecule=Cc1nc(Cc2n[nH]c(C)n2)n[nH]1 quantity_unit=µM prefix_operator=> value_observed=100
molecule="O=CC1=CCC2c3[nH]c4ccccc4c3CCN2C1 (stereo not given)" quantity_unit=µM prefix_operator=> value_observed=396
molecule=O=C1CNN=C(Cn2nc(-c3ccccc3)c3ccccc3c2=O)N1 quantity_unit=µM prefix_operator=> value_observed=100

----------
Listed molecules paired with reported TGI
# Tested on: HS 578T breast
# MEASUREMENT_NOTES: NCI tumour cell line growth inhibition, 48 h
READOUT_TYPE: TGI

molecule=Cc1ccc(NCCN(C)C)c2c(=O)c3cc(O)ccc3sc12 readout_type=TGI value_observed="3.87 µM"
molecule="CC(=O)NN(c1ccccc1)C1CCN(c2ccccc2)N1C(C)=O (stereo not given)" readout_type=TGI value_observed="> 10 µM"
molecule=CC[C@@]1(O)C(=O)OCc2c1cc1n(c2=O)Cc2c-1nc1ccccc1c2C=Nc1ccccc1N[C@@H]1c2cc3c(cc2[C@@H](c2cc(OC)c(O)c(OC)c2)[C@H]2C(=O)OC[C@@H]21)OCO3 readout_type=TGI value_observed="> 100 µM"
molecule=C/C(Nc1ccc(Cl)cc1)=C1/CCOC1=O readout_type=TGI value_observed="> 100 µM"
molecule=NC(N)=N/N=C/c1c(-c2ccc(Cl)c([N+](=O)[O-])c2)nc2sc3ccccc3n12 readout_type=TGI value_observed="2.91 µM"
molecule=O=C(NCc1ccccc1Cl)c1c(O)c2ccccc2[nH]c1=O readout_type=TGI value_observed="> 100 µM"
molecule=COc1ccc(N=Nc2c(N)nn3c(SC)c(C#N)c(N)nc23)cc1 readout_type=TGI value_observed="6.91 µM"
molecule=Cc1ncc(CSC(=N)N)n1Cc1ccccc1 readout_type=TGI value_observed="> 100 µM"
molecule="CN(C)c1ccc(C2CC(C)(O)Oc3cc4c(cc32)OCO4)cc1 (stereo not given)" readout_type=TGI value_observed="> 100 µM"
molecule=Cn1c(=O)c2c(nc(N/N=C3/SCC(=O)N3Cc3ccccc3)n2C)n(C)c1=O readout_type=TGI value_observed="> 100 µM"

----------
# Tested on: HL-60(TB) leukemia
# MEASUREMENT_NOTES: NCI tumour cell line growth inhibition, 48 h
READOUT_TYPE: TGI (µM)

structure=Cc1cc2occ(S(=O)(=O)NC(=O)Nc3ccc(Cl)cc3)c(=O)c2c(=O)o1 target_under_test="HL-60(TB) leukemia" prefix_operator=> value_observed=100
structure=CCOc1ccc(Nc2nc(-c3c(C)nc4ncccn34)cs2)cc1 target_under_test="HL-60(TB) leukemia" prefix_operator== value_observed=0.0706
structure=C=CCNC1=C2C[C@@H](C)C[C@@H](OC)[C@H](OC(=O)CCN(C)C)[C@H](C)/C=C(\C)[C@@H](OC(N)=O)[C@H](OC)/C=C\C=C(/C)C(=O)NC(=CC1=O)C2=O target_under_test="HL-60(TB) leukemia" prefix_operator== value_observed=11.7
structure=S=c1[nH]n2c(COc3cc(Cl)c(OCc4nnc5sc(=S)[nH]n45)cc3Cl)nnc2s1 target_under_test="HL-60(TB) leukemia" prefix_operator=> value_observed=100

----------
# Test system: HCT-116 colon
# MEASUREMENT_NOTES: NCI tumour cell line growth inhibition, 48 h
READOUT_TYPE: TGI

compound=CC1=C(CNO)C2=C(C)C3(CC3)[C@@](C)(O)C(=O)C2=C1 readout_type=TGI value_observed="5.21 µM"
compound=C/C(=N\NC(=S)N1CCOCC1)c1nc2ncccc2[nH]1 readout_type=TGI value_observed="> 100 µM"
compound=COc1ccc(/C=N/Nc2nnc3c(n2)c2ccccc2c2nn(-c4ccccc4Cl)nc23)cc1 readout_type=TGI value_observed="> 100 µM"
compound=O=c1c2cc(I)ccc2nc(-c2cccs2)n1O readout_type=TGI value_observed="> 100 µM"
compound=C#CC#CC#CC#CC#CC#CC#CC#CC[C@@H]1OC[C@@H](COC(=O)O[C@@H](C(=O)O[C@H]2C[C@@]3(O)[C@@H](OC(=O)c4ccccc4)[C@@H]4[C@]5(OC(C)=O)CO[C@@H]5C[C@H](O)[C@@]4(C)C(=O)[C@H](OC(C)=O)C(=C2C)C3(C)C)[C@@H](NC(=O)c2ccccc2)c2ccccc2)O1 readout_type=TGI value_observed="> 33.3 µM"
compound="CC(=O)OCC1OC(n2c(=S)n(-c3ccccc3)c(=O)c3cc(Br)cc(Br)c32)C(OC(C)=O)C(OC(C)=O)C1OC(C)=O (stereo unspecified)" readout_type=TGI value_observed="> 100 µM"
compound="CC1CC(C)C(C(O)CC2CC(=O)N(c3ccccc3)C(=O)C2)C(O)C1 (stereo unspecified)" readout_type=TGI value_observed="> 100 µM"
compound=COc1cc(/C=C\c2cc(OC)c(OC)c(OC)c2)cc(NS(=O)(=O)c2ccc(Cl)cc2)c1OC readout_type=TGI value_observed="> 100 µM"
compound=CC1=C2[C@@H](CC1)[C@]1(C)O[C@@](C3CC3)(C[C@H]1OC(=O)CO)[C@H]2OC(=O)/C=C/c1ccccc1 readout_type=TGI value_observed="30.9 µM"
compound=C=CCN=C(N/N=C/c1ccc([N+](=O)[O-])o1)NS(=O)(=O)c1cc(C(=O)Nc2ccccc2)c(Cl)cc1SCC(N)=O readout_type=TGI value_observed="49 µM"
compound=COc1cc(OC)cc(-c2ccc(-c3ccc(C(=N)N)cn3)s2)c1 readout_type=TGI value_observed="3.64 µM"
compound="NC(Cc1ccccc1CP(=O)(O)O)C(=O)O (stereo unspecified)" readout_type=TGI value_observed="> 100 µM"
compound=O=C(Oc1ccc2c(c1)CN(Cc1ccccc1)CO2)c1ccccc1 readout_type=TGI value_observed="30.6 µM"
compound=Cc1cc(=O)n2nc(CSc3nnc(Sc4cc(O)ccc4O)s3)sc2n1 readout_type=TGI value_observed="41.2 µM"
compound=COc1cccc(N=NN2CCCC2)c1 readout_type=TGI value_observed="> 100 µM"
compound=CCCCCCCc1ccc(-c2nnc(N=Nc3ccc(OCCCCC)cc3)s2)s1 readout_type=TGI value_observed="> 100 µM"
compound="COc1ccc(OCC(O)CN2CCN(c3ccc(Cl)cc3)CC2)cc1 (stereo unspecified)" readout_type=TGI value_observed="> 100 µM"
compound=CC[C@@]12CCC(=S)N(CCSc3ccccc3)[C@@H]1c1c(n(S(=O)(=O)c3ccc(OC)cc3)c3ccccc13)CC2 readout_type=TGI value_observed="> 100 µM"
compound=O=C(/C=C(\[O-])c1ccccc1)CCCCCCC(=O)/C=C(\[O-])c1ccccc1.O=C(/C=C(\[O-])c1ccccc1)CCCCCCC(=O)/C=C(\[O-])c1ccccc1.O=C(/C=C(\[O-])c1ccccc1)CCCCCCC(=O)/C=C(\[O-])c1ccccc1.[Nd+3].[Nd+3] readout_type=TGI value_observed="> 50 µM"
compound=O=C(CC1=Nc2nnc(-c3nnc4n3C(=O)C(CC(=O)C3CC3)=N4)n2C1=O)C1CC1 readout_type=TGI value_observed="> 100 µM"
compound="O=C1CCS/C(=N/S(=O)(=O)c2ccc(N3N=C4c5ccccc5CC4C3c3cccs3)cc2)N1Cc1ccccc1 (stereo unspecified)" readout_type=TGI value_observed="34.5 µM"
compound="CC(=O)NN(c1ccccc1)C1CCN(c2ccccc2)N1C(C)=O (stereo unspecified)" readout_type=TGI value_observed="> 10 µM"
compound="COC(=O)C(NC(=O)c1ccccc1)C(c1c(O)cc(O)cc1O)P(=O)(OC)OC (stereo unspecified)" readout_type=TGI value_observed="> 100 µM"
compound=Cc1cc(C)nc(NS(=O)(=O)c2ccc(Nc3c4ccccc4nc4ccc(C(=O)Nc5ccc(S(=O)(=O)N=C(N)N)cc5)cc34)cc2)n1 readout_type=TGI value_observed="> 100 µM"
compound="C=C1CC/C=C(\\C)CC[C@H](C(=C)C)[C@@H](O)/C=C(/CO)CCC1O (stereo partly specified)" readout_type=TGI value_observed="> 100 µM"
compound=CCOc1ccc(Nc2nc(-c3c(C)nc4ncccn34)cs2)cc1 readout_type=TGI value_observed="11.6 µM"
compound=OCCCCC#Cc1ccccc1C#Cc1ccc(C(F)(F)F)cc1 readout_type=TGI value_observed="35.8 µM"
compound=NC(N)=N/N=C/c1c(-c2ccncc2)nc2sc(Cl)cn12 readout_type=TGI value_observed="6.22 µM"
compound=COc1ccc(/C=C\c2cc(OC)c(OC)c(OC)c2)c(NS(=O)(=O)c2ccc(C(C)(C)C)cc2)c1O readout_type=TGI value_observed="13.6 µM"
compound=C=CCN1C(=O)CC(=O)N(NC2=NNC3(C(=O)N2)c2ccccc2-c2ccccc23)C1=S readout_type=TGI value_observed="> 100 µM"
compound=Cc1nc(Cc2n[nH]c(C)n2)n[nH]1 readout_type=TGI value_observed="> 100 µM"
compound=Oc1ccccc1C=Nc1nc(OCc2ccccc2)nc2[nH]ncc12 readout_type=TGI value_observed="41.9 µM"
compound=COc1ccc(/C(C)=C(\c2ccc(Cl)cc2)c2ccc(OCCN3CCCCCC3)cc2)cc1F readout_type=TGI value_observed="4.51 µM"
compound=O=c1[nH]c2ccc([N+](=O)[O-])c(Cl)c2c2ccccc12 readout_type=TGI value_observed="> 100 µM"
compound=C[C@]12CCC3=NCCN3C1=CC[C@@H]1[C@@H]2CC[C@@]2(C)[C@H]1CC[C@]2(C)O readout_type=TGI value_observed="> 100 µM"
compound="COc1ccc(C23OCC(Cc4cc(OC)c(OC)cc42)C3CO)cc1OC (stereo unspecified)" readout_type=TGI value_observed="> 100 µM"
